Reported values: Ki for 5-hydroxytryptamine receptor 1E (Homo sapiens), one per item.

[
  {
    "compound": "CCN(CC)C(=O)[C@@H]1C=C2c3cccc4[nH]cc(c34)C[C@H]2N(C)C1 [LYSERGIDE]",
    "assay_system": "5-hydroxytryptamine receptor 1E (Homo sapiens)",
    "Ki, µM": 0.093
  },
  {
    "compound": "C[C@@H]1C[C@@H](C)N1C(=O)[C@@H]1C=C2c3cccc4[nH]cc(c34)CC2N(C)C1 (some centres undefined)",
    "assay_system": "5-hydroxytryptamine receptor 1E (Homo sapiens)",
    "Ki, µM": 0.14
  },
  {
    "compound": "C[C@@H]1C[C@H](C)N1C(=O)[C@@H]1C=C2c3cccc4[nH]cc(c34)CC2N(C)C1 (some centres undefined)",
    "assay_system": "5-hydroxytryptamine receptor 1E (Homo sapiens)",
    "Ki, µM": 0.2
  },
  {
    "compound": "C[C@H]1C[C@H](C)N1C(=O)[C@@H]1C=C2c3cccc4[nH]cc(c34)CC2N(C)C1 (some centres undefined)",
    "assay_system": "5-hydroxytryptamine receptor 1E (Homo sapiens)",
    "Ki, µM": 0.28
  }
]
